System tested: CD80-CD28 interaction (Homo sapiens, UniProt P33681)
Sequence (P33681 35-242 limits assumed): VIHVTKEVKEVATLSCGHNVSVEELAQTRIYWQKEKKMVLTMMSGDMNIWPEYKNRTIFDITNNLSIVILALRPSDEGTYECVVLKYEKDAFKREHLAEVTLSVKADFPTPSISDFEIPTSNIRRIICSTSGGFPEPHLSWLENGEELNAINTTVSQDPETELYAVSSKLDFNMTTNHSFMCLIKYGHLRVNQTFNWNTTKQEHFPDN
Measurement notes: Homogenous Time Resolved Fluorescence (HTRF) assay, cell free
Assay type: binding
Details: cell-free HTRF, compound concentration series 100 μM-1.7 nM, 4 hours at room temperature; read-out: Activity (EC50 in the HTRF assay)
pEC50: −log10 of the molar value.
Measured pEC50 values are reported for all entries that follow.
Measured endpoint: pEC50

Compound: CC1C(NC(=O)c2ccc(-n3[nH]c4c(nnc5ccccc54)c3=O)cc2)CC2CC1C2(C)C (centres unmarked) [Example 122]
System tested: CD80-CD28 interaction (Homo sapiens, UniProt P33681)
Result: < 5.00
--
Compound: CCCNCCNC(=O)Nc1ccc(-n2[nH]c3c(nnc4ccccc43)c2=O)cc1 [Example 144]
System tested: CD80-CD28 interaction (Homo sapiens, UniProt P33681)
Result: > 6.00
--
Compound: CCC(CC)NC(=O)c1ccc(-n2[nH]c3c(nnc4ccccc43)c2=O)cc1 [Example 72]
System tested: CD80-CD28 interaction (Homo sapiens, UniProt P33681)
Result: 5.00 to 6.00
--
Compound: O=C(NCCSCc1ccccc1)Nc1ccc(-n2[nH]c3c(nnc4ccccc43)c2=O)cc1 [Example 200]
System tested: CD80-CD28 interaction (Homo sapiens, UniProt P33681)
Result: < 5.00
--
Compound: CC(C)CCNC(=O)c1ccc(-n2[nH]c3c(nnc4ccccc43)c2=O)cc1 [Example 82]
System tested: CD80-CD28 interaction (Homo sapiens, UniProt P33681)
Result: 5.00 to 6.00
--
Compound: CCCCCCCC(C)NC(=O)c1ccc(-n2[nH]c3c(nnc4ccccc43)c2=O)cc1 (centres unmarked) [Example 92]
System tested: CD80-CD28 interaction (Homo sapiens, UniProt P33681)
Result: < 5.00
--
Compound: O=C(Nc1ccc(-n2[nH]c3c(nnc4ccccc43)c2=O)cc1)NC1CN2CCC1CC2 (centres unmarked) [Example 169]
System tested: CD80-CD28 interaction (Homo sapiens, UniProt P33681)
Result: > 6.00
--
Compound: CN(CCNC(=O)c1ccc(-n2[nH]c3c(nnc4ccccc43)c2=O)cc1)C(=O)OC(C)(C)C [Example 97]
System tested: CD80-CD28 interaction (Homo sapiens, UniProt P33681)
Result: 5.00 to 6.00

* * *

System tested: CD80-CD28 interaction (Homo sapiens)
Sequence (P33681 35-242 limits assumed): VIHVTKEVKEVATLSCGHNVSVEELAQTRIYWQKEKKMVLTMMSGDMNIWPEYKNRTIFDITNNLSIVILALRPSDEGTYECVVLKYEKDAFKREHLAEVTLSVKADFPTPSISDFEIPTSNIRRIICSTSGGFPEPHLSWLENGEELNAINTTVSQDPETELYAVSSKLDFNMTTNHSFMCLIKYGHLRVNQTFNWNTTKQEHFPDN
Measurement notes: Homogenous Time Resolved Fluorescence (HTRF) assay, cell free
Assay type: binding
Details: cell free HTRF assay; concentration series 100 μM-1.7 nM; 4 hours at room temperature; read-out: Activity (EC50 in the HTRF assay)
pEC50: −log10 of the molar value.

Molecule: CCC(C)CNC(=O)Nc1ccc(-n2[nH]c3c(nnc4ccccc43)c2=O)cc1 (stereo not shown) [Example 308]
pEC50: 5.00 to 6.00
--
Molecule: O=C(NCCCCN1CCCC1)c1ccc(-n2[nH]c3c(nnc4c(F)cc(F)cc43)c2=O)cc1 [Example 416]
pEC50: > 6.00
--
Molecule: CC(C)(C)NC(=O)c1ccc(-n2[nH]c3c(nnc4ccccc43)c2=O)cc1 [Example 319]
pEC50: > 6.00
--
Molecule: CCCCNCCNC(=O)c1ccc(-n2[nH]c3c(nnc4c(F)cccc43)c2=O)cc1 [Example 344]
pEC50: > 6.00

* * *

System tested: CD80-CD28 interaction (Homo sapiens)
Sequence (P33681 35-242 limits assumed): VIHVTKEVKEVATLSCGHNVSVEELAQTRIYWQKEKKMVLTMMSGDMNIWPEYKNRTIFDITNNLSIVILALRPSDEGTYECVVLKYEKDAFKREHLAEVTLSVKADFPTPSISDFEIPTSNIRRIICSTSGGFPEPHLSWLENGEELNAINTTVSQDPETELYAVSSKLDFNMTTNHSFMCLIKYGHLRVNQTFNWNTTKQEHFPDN
Measurement notes: Homogenous Time Resolved Fluorescence (HTRF) assay, cell free
Type: binding
Details: cell free HTRF assay; concentration series 100 μM-1.7 nM; 4 hours at room temperature; read-out: Activity (EC50 in the HTRF assay)
pEC50: −log10 of the molar value.

Compound: O=C(NCc1ccc([N+](=O)[O-])cc1)Nc1ccc(-n2[nH]c3c(nnc4ccccc43)c2=O)cc1 [Example 296]
pEC50: < 5.00

Compound: CNCCCNC(=O)c1ccc(-n2[nH]c3c(nnc4c(F)ccc(F)c43)c2=O)cc1 [Example 428]
pEC50: > 6.00

Compound: O=C(NC1CCC1)c1ccc(-n2[nH]c3c(nnc4c(F)cccc43)c2=O)cc1 [Example 424]
pEC50: > 6.00

Compound: O=C(NCCc1ccc(Cl)cc1)c1ccc(-n2[nH]c3c(nnc4c(F)cccc43)c2=O)cc1 [Example 363]
pEC50: 5.00 to 6.00

Compound: O=C(NCCCCN1CCCC1)c1ccc(-n2[nH]c3c(nnc4c(F)ccc(F)c43)c2=O)cc1 [Example 430]
pEC50: > 6.00

Compound: O=C(NCC(F)F)c1ccc(-n2[nH]c3c(nnc4ccccc43)c2=O)cc1 [Example 311]
pEC50: > 6.00

Compound: O=C(NCCNCc1ccccc1)c1ccc(-n2[nH]c3c(nnc4c(F)cccc43)c2=O)cc1 [Example 347]
pEC50: > 6.00

Compound: CC(NC(=O)Nc1ccc(-n2[nH]c3c(nnc4ccccc43)c2=O)cc1)C(C)(C)C (stereo not shown) [Example 262]
pEC50: < 5.00

Compound: CCCCCNC(=O)c1ccc(-n2[nH]c3c(nnc4ccccc43)c2=O)cc1 [Example 251]
pEC50: < 5.00

Compound: O=C(NC1CN2CCC1CC2)c1ccc(-n2[nH]c3c(nnc4cccc(F)c43)c2=O)cc1 (stereo not shown) [Example 401]
pEC50: > 6.00

Compound: CN1C(C)(C)CC(NC(=O)c2ccc(-n3[nH]c4c(nnc5ccc(F)cc54)c3=O)cc2)CC1(C)C [Example 427]
pEC50: > 6.00

Compound: C=C(C)CNC(=O)c1ccc(-n2[nH]c3c(nnc4c(F)cccc43)c2=O)cc1 [Example 340]
pEC50: > 6.00

Compound: CC1CCCCC1NC(=O)c1ccc(-n2[nH]c3c(nnc4ccccc43)c2=O)cc1 (stereo not shown) [Example 316]
pEC50: 5.00 to 6.00

Compound: CN(CCCCNC(=O)c1ccc(-n2[nH]c3c(nnc4c(F)cccc43)c2=O)cc1)C1CCCCC1 [Example 436]
pEC50: > 6.00

Compound: CC(C)C(C)NC(=O)Nc1ccc(-n2[nH]c3c(nnc4ccccc43)c2=O)cc1 (stereo not shown) [Example 263]
pEC50: 5.00 to 6.00

Compound: CC(C)NCCCNC(=O)c1ccc(-n2[nH]c3c(nnc4c(F)cccc43)c2=O)cc1 [Example 348]
pEC50: > 6.00

* * *

System tested: CD80-CD28 interaction (Homo sapiens, UniProt P33681)
Sequence (P33681 35-242 limits assumed): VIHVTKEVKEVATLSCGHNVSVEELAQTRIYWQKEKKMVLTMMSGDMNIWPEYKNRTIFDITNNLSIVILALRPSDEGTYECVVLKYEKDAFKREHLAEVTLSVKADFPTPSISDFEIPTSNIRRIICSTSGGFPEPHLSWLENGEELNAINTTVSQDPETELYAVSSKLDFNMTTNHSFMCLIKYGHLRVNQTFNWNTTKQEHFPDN
Measurement notes: Homogenous Time Resolved Fluorescence (HTRF) assay, cell free
Type: binding
Details: cell-free HTRF, compound concentration series 100 μM-1.7 nM, 4 hours at room temperature; read-out: Activity (EC50 in the HTRF assay)
pEC50: −log10 of the molar value.
Measured endpoint: pEC50

Compound: CCOC(=O)CCCNC(=O)Nc1ccc(-n2[nH]c3c(nnc4ccccc43)c2=O)cc1
Result: < 5.00

Compound: O=C(NC1CCN(Cc2ccccc2)CC1)c1ccc(-n2[nH]c3c(nnc4ccccc43)c2=O)cc1
Result: > 6.00

Compound: O=C(NCC1CCCCCC1)Nc1ccc(-n2[nH]c3c(nnc4ccccc43)c2=O)cc1
Result: < 5.00

Compound: O=C(NCCCNC1CCCCC1)Nc1ccc(-n2[nH]c3c(nnc4ccccc43)c2=O)cc1
Result: > 6.00

Compound: CNCCNC(=O)Nc1ccc(-n2[nH]c3c(nnc4ccccc43)c2=O)cc1
Result: > 6.00

Compound: CCCC(C)NC(=O)Nc1ccc(-n2[nH]c3c(nnc4ccccc43)c2=O)cc1 (stereo not shown)
Result: < 5.00

Compound: O=C(NCCc1ccc([N+](=O)[O-])cc1)Nc1ccc(-n2[nH]c3c(nnc4ccccc43)c2=O)cc1
Result: 5.00 to 6.00

Compound: COCC(C)NC(=O)Nc1ccc(-n2[nH]c3c(nnc4ccccc43)c2=O)cc1 (stereo not shown) [Example 210]
Result: > 6.00

Compound: O=C(NCCNc1cccc2ccccc12)Nc1ccc(-n2[nH]c3c(nnc4ccccc43)c2=O)cc1
Result: < 5.00

Compound: O=C(NCCO)Nc1ccc(-n2[nH]c3c(nnc4ccccc43)c2=O)cc1
Result: > 6.00

Compound: O=C(NCCc1ccccn1)c1ccc(-n2[nH]c3c(nnc4ccccc43)c2=O)cc1
Result: 5.00 to 6.00

Compound: CC(C)OCCCNC(=O)Nc1ccc(-n2[nH]c3c(nnc4ccccc43)c2=O)cc1
Result: 5.00 to 6.00

Compound: O=C(Nc1ccc(-n2[nH]c3c(nnc4ccccc43)c2=O)cc1)NC1CCCCC1
Result: < 5.00

Compound: O=C(NCCCCc1ccccc1)Nc1ccc(-n2[nH]c3c(nnc4ccccc43)c2=O)cc1
Result: < 5.00

Compound: CN1CCCC1CCNC(=O)c1ccc(-n2[nH]c3c(nnc4ccccc43)c2=O)cc1 (stereo not shown)
Result: > 6.00

Compound: CN1C(C)(C)CC(NC(=O)c2ccc(-n3[nH]c4c(nnc5ccccc54)c3=O)cc2)CC1(C)C
Result: > 6.00
